The reported numbers originate from patent US20030148958A1.

- Tested system: corticotropin releasing factor 1 receptor
- Test: cell-based or functional assay
Listing of recorded CRF1R EC50 by entry.
Form entry: value (nM) — number only.

ZGPPISIDLPFQLLRKMIEIEKQEKEKQQATTNARLLDRV (C-terminal amide) [SEQ ID NO 22] | 1000

Prompt line: Recorded CRF1R EC50 of ZGPPISIDLPVYLLRKMIEIEKQEKEKQQAANNRLLLDTI (C-terminal amide) [SEQ ID NO 39] , please.
Response line: 1000
